- assay notes: Waters SunFire C18, 150 × 2.1 mm, 3.5 µm, 25 °C, 0.25 mL/min, estimated dead time 1.3 min; A: water + 0.1% formic acid; B: methanol; gradient (min/%B) 0/5 30/100
- test context: stereoisomer not certain
measurement name: LC retention time (min)
Answers are plain numbers, in min.

Please review the entries below; each comes with its answer.
CCC1CN2CCc3c([nH]c4ccccc34)C2CC1C(=COC)C(=O)OC (stereo unspecified)
16.8
CC=C1C[N+]2(C)CCC34C(=C(C=O)C1CC32)Nc1ccccc14 (stereo unspecified)
11.3
CC=C1CN2C3CC45c6ccccc6N(C)C4C2CC1C3C5OC(=O)c1cc(OC)c(OC)c(OC)c1 (stereo unspecified)
22.6
CCC1CC2CC3c4[nH]c5ccc(OC)cc5c4CCN(C2)C13 (stereo unspecified)
13.6
CC1OCC2C3CC(=O)C4(CCN(C)CC13)c1ccccc1NC24 (stereo unspecified)
15.9

For each entry beneath this line, provide reported LC retention time.
1. C=CC1CN2CCC3(C(=O)Nc4c3ccc(O)c4C3CCCN3C)C2CC1CC1c2[nH]c3ccccc3c2CCN1C (stereo unspecified)
2. C=CC12CN(C)C3C4COC(CC41)C1(C(=O)Nc4ccccc41)C32 (stereo unspecified)
3. COC(=O)C1=COC(C)C2CN3CCc4c([nH]c5cc(OC)c(OC)cc45)C3CC12 (stereo unspecified)
4. COC(=O)C1C2CC3c4[nH]c5cc(OC)ccc5c4CCN3CC2CC(O)C1OC (stereo unspecified)

8.71
9.75
17
16.1

For each entry beneath this line, provide reported LC retention time.
1. CCC12C=CCN3CCC4(C(=C(C(=O)OC)C1)Nc1cc(O)c(C5C=CC6(CC)CC(C(=O)OC)=C7Nc8c(O)cccc8C78CCN5C68)cc14)C32 (stereo unspecified)
2. CCC1(O)C(=O)OCc2c1cc1n(c2=O)Cc2cc3ccccc3nc2-1 (stereo unspecified)
3. CCC1C2CCN3CCC4(C(=C2C(=O)OC)Nc2ccccc24)C13 (stereo unspecified)

[16.7, 27.2, 13.7]

For each entry beneath this line, provide reported LC retention time.
1. CCC1CN2CCc3c([nH]c4ccccc34)C2CC1CCO (stereo unspecified)
2. CC=C1C[n+]2ccc3c([nH]c4ccccc43)c2CC1C(C(=O)OC)C1OCC2C3CC4N(CCC45c4ccccc4N1C25)CC3CC (stereo unspecified)
3. CC=C1CN(C)C2Cc3c([nH]c4ccccc34)C(c3ccc4c(CCN)c[nH]c4c3)CC1C2C(=O)OC (stereo unspecified)
4. CCC1NC2CC3(C(=O)N(OC)c4cc(OC)ccc43)C3CC1C2CO3 (stereo unspecified)

[14.1, 15.8, 12.6, 16.3]
